# Tested on: IGROV1 ovarian
# Experiment description: NCI tumour cell line growth inhibition, 48 h
Endpoint: TGI

Give TGI for the following molecule: Cc1c(C(=O)CSc2nc3ccccc3[nH]2)c(=O)n(-c2ccccc2)n1C
> 100 µM

Please give measured TGI of the following entry: O=C1c2ccccc2-c2[nH]c3cn[nH]c(=O)c3c21
> 100 µM

Please give measured TGI of the following entry: COc1cccc(C2NC(=S)NC(C)=C2C(=O)Nc2ccc(Cl)c(Cl)c2)c1 (centres undefined)
28.5 µM

Item Oc1[nH]c2cc(Cl)ccc2c1/C=c1/ccc2c(c1)N=C(c1cc(F)cc(F)c1)N=2 : provide TGI
17.9 µM

Assign TGI to the following record: FC1OC2OC1C(OCc1ccccc1)C(OCc1ccccc1)C2OCc1ccccc1 (centres undefined)
> 100 µM

Indicate the recorded TGI value for this molecule: N#CC1C=Cc2ccccc2N1C(=O)Oc1ccccc1 (centres undefined)
> 100 µM

Supply TGI value. Item: O=C(Nc1cccc(-n2cc(-c3ccncc3)c(-c3ccc(O)c(Cl)c3)n2)c1)c1cccc(C(F)(F)F)c1
> 100 µM

For the molecule Cc1nc2ccc(Cl)cc2c2c1CCN2c1ccccc1 , give its measured TGI value.
> 100 µM

Give TGI for the following molecule: N/C(=N\Nc1ccc(S(N)(=O)=O)cc1)c1cnccn1
> 100 µM

----------
# Tested on: UACC-62 melanoma
# Experiment description: NCI tumour cell line growth inhibition, 48 h
Endpoint: TGI

Identify measured TGI associated with COC(=O)[C@@H]1CN(C(=O)c2ccccc2)C(=O)N1C(=O)OCc1ccccc1
> 100 µM

Hello, please tell me recorded TGI for this one: C(/Cc1ccc2c(c1)OCO2)=N\NC1=NCCCN1
> 100 µM

Using the record for CC(=O)N(Cc1ccccc1)c1ccccc1I(=O)=O , state its measured TGI.
> 100 µM

For the molecule CCOC(=O)c1cn(C)c(=S)n2c1nc1ccccc12 , give its reported TGI.
> 100 µM

Dear colleague, please send me the reported TGI for CSC1=NCC2(S1)c1ccccc1N(C(=O)OC(C)(C)C)C2N1CCCCC1 (stereo unspecified) when you can.
> 100 µM

Report TGI, nothing else, for this molecule: O=C1CC(n2cccc2)c2c(Br)sc(Br)c21 (stereo unspecified)
30.3 µM

Return value of TGI for input COc1cc(/C=C(\C#N)C(N)=C(C#N)C#N)cc(O)c1O , no commentary.
> 100 µM

Provide TGI value for the following molecule: Nc1ncnc2c1ncn2Cc1cccc(CCl)c1
25.8 µM

Give the reported TGI for this molecule. c1ccc(-c2nnn(CCN3CCCCC3)n2)cc1
> 100 µM

Read the entry C=[CH][Sn]([CH]=C)([O]c1cccc2cccnc12)[O]c1cccc2cccnc12 and write its reported TGI.
2.5 µM

Please report the measured TGI for CSc1ccc(/C=C2\N=C(c3ccccc3)N(/N=C/c3cc4cc(C)ccc4nc3Cl)C2=O)cc1
33.7 µM

----------
Would you mind telling me the reported GI50 of each entry?

Give reported GI50 for Oc1ccc(Cl)cc1Cc1cc(Cl)ccc1O (U251 CNS)
2.32 µM

Send back U251 CNS GI50 of C=[CH][Sn]([CH]=C)([O]c1cccc2cccnc12)[O]c1cccc2cccnc12 only.
2.58 µM

Identify measured GI50 obtained with U251 CNS for O=c1[nH]c2ccccc2n1-c1n[nH]c2ccccc12 .
31.3 µM

Find the measured GI50 of CC1(C)CC[C@]2(C(N)=O)CC[C@]3(C)C(=CC[C@@H]4[C@@]5(C)C/C(=C/c6ccncc6)C(=O)C(C)(C)[C@@H]5CC[C@]43C)[C@@H]2C1 with U251 CNS as test system.
1.69 µM

Under U251 CNS, report GI50 for CC1COCC(C)N1C1=C(Cl)C(=O)c2ccccc2C1=O (stereo not drawn)
11.6 µM

Give GI50 for O=C(Cc1csc2nc(-c3ccc(Br)cc3)cn12)N/N=C/c1ccc(O)cc1 tested on U251 CNS.
21.3 µM

State measured GI50 of the compound Nc1[nH]c(=O)ncc1CO with U251 CNS.
> 100 µM

Determine reported GI50 for Oc1[nH]c2cc(Cl)ccc2c1/C=c1/ccc2c(c1)N=C(c1cc(F)cc(F)c1)N=2 ; test system: U251 CNS.
1.06 µM

Lab note: record GI50 of CC1=C(C(=O)Nc2ccc(Cl)c(Cl)c2)C(c2ccccc2O)NC(=O)N1 (stereo not drawn) tested on U251 CNS.
> 50 µM

Look up and report measured GI50 (U251 CNS) for the following compound: COc1cc([N+](=O)[O-])c2ncccc2c1[N+](=O)[O-]
4.45 µM

Name the value of GI50 reported for CC(=O)Oc1ccc(/C=N/NC(N)=S)nc1 when tested on U251 CNS.
4.17 µM

Report the value of GI50 obtained on U251 CNS for N[C@@H]1CCCC[C@@H]1N.O=P([O-])([O-])CN(CP(=O)([O-])[O-])CP(=O)([O-])[O-].[Pt+2] .
> 100 µM

For U251 CNS, give the measured GI50 of the entry CC(=O)N(Cc1ccccc1)c1ccccc1I(=O)=O
34.5 µM
